Measured DTD50 (number of days until 50% death) by item
- Tested on: termites from the genus/specie Reticulitermes flavipes or Coptotermes formosanus
- procedure_summary: Termiticide activity (Reference Example 3)
- Format: in vivo
- assay_context: 0.5% compound on Whatman #1 filter paper, 20 termites per well, triplicate
Dear colleague, please return just the value in days, with no unit written.

Examples from the recorded data:
compound	measurement_target	DTD50 (number of days until 50% death) / days
NC1CCN(Cc2ccccc2)CC1 [CAS No. 50541-93-0]	termites from the genus/specie Reticulitermes flavipes or Coptotermes formosanus	59
CC(C)NCC(O)COc1cccc2ccccc12 (stereo not shown) [CAS No. 4199-10-4]	termites from the genus/specie Reticulitermes flavipes or Coptotermes formosanus	77
CC1(C)CC(O)CC(C)(C)N1O [CAS No. 2226-96-2]	termites from the genus/specie Reticulitermes flavipes or Coptotermes formosanus	32
O=[N+]([O-])c1ccc(OC2OC(CO)C(OC3OC(CO)C(OC4OC(CO)C(O)C(O)C4O)C(O)C3O)C(O)C2F)c([N+](=O)[O-])c1 (stereo not shown) [CAS No. 213193-76-1]	termites from the genus/specie Reticulitermes flavipes or Coptotermes formosanus	60
CC(C)(C1CCC(O)CC1)C1CCC(O)CC1 (stereo not shown) [CAS No. 80-04-6]	termites from the genus/specie Reticulitermes flavipes or Coptotermes formosanus	62

DTD50 (number of days until 50% death) reported for this compound OCC1OC(OC2C(CO)OC(Oc3ccccc3)C(O)C2O)C(O)C(O)C1O (stereo not shown) : 27

DTD50 (number of days until 50% death) reported for this compound CC(=O)c1ccc(-n2ccnc2)cc1 [CAS No. 10041-06-2] : 35

Hello, the source for this data is patent US7157078B2, in case you need it.
